Every entry's value here was drawn from paper PMC11257983.

Measured ratio to parent of individual entries
B1: Flag-CNK^2–549 [Drosophila] / Myc-MEK [Drosophila] (parent)
chain 1: MSKNKLNLVLPPVNTEATVAAATVAPTPPFKTPSGTDTHSLLGKPKTSIDALTETLEGLDMGDTERKRIKMFLSQKEKIGELSDEDLEKLGELGSGNGGVVMKVRHTHTHLIMARKLIHLEVKPAIKKQILRELKVLHECNFPHIVGFYGAFYSDGEISICMEYMDGGSLDLILKRAGRIPESILGRITLAVLKGLSYLRDNHAIIHRDVKPSNILVNSSGEIKICDFGVSGQLIDSMANSFVGTRSYMSPERLQGTHYSVQSDIWSLGLSLVEMAIGMYPIPPPNTATLESIFADNAEESGQPTDEPRAMAIFELLDYIVNEPPPKLEHKIFSTEFKDFVDICLKKQPDERADLKTLLSHPWIRKAELEEVDISGWVCKTMDLPPSTPKRNTSPN
chain 2: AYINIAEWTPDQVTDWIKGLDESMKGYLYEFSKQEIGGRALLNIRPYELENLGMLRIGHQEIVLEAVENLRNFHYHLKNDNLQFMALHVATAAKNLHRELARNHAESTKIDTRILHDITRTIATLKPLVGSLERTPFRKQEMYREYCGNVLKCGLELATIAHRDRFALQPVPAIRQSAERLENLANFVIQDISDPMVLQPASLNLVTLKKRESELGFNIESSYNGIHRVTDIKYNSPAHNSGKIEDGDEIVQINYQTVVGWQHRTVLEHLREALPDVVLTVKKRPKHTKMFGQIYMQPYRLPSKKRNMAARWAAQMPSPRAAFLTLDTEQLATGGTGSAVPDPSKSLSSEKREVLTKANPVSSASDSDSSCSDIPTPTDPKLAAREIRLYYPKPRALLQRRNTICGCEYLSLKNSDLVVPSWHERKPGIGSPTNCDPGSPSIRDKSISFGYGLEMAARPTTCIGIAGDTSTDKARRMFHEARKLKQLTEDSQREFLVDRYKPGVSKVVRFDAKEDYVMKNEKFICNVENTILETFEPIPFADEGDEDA

Variants of: B1
Assay: GST pull-down, immunoblot quantification
Conditions: with Myc-MEK [Drosophila]; S2 cells; GST-HYP, V5-KSR, Myc-MEK co-expressed; captured via GST-HYP; anti-MEK blot; parent: 1
Form rule: numeric answer, no unit written next to it.

variantDescription: chain 2 Q199A
readoutValue: 0.62

So for chain 2 S193A , the logged ratio to parent turned out to be 1.09

Lab note: measured ratio to parent of chain 2 D194K V197E was 0.02

# ratio to parent of chain 2 D194K = 0.05

What the record says about chain 2 V197E : ratio to parent is 0.03

Sure, the documented ratio to parent for chain 2 M196E is 0.23
